Measured values drawn from PubChem BioAssay AID488969 for this set.

target: Metabotropic glutamate receptor 8 (Rattus norvegicus); test: mGluR8 Gi/Go-coupled signaling modulation – cell-based, rat, thallium flux, HTS, primary screen (AID 488969); settings: HEK293 rat mGluR8, GIRK thallium flux, FluoZin2; at 10 µM; stronger effect = higher value; submaximal glutamate (EC20) added with thallium
In all, about 110,000 compounds were measured (“z-score”: median about -0.1, highest 2% from about 2 on). What follows is part of a selection rich in the highest values, with near analogues and random picks from the rest.
Label false if z-score falls below -0.1; label true in every other case.

> print(dat)
                       smiles.representation  answer.label
 1        CN(C)C(=O)C(=O)c1cccn1-c1ccccc1C#N          true
 2      CCc1c(-c2n[nH]c(=S)n2Cc2ccccc2)csc1C          true
 3                     S=C1CCSc2ccc(Cl)cc2N1          true
 4               O=C1Cc2ccccc2Sc2ccc(Cl)cc21          true
 5               S=C1Nc2cc(Cl)ccc2Sc2ccccc21          true
 6  N#Cc1c(N2CCN(C(=O)c3ccco3)CC2)nc(-c2ccccc2)c2c1CCCC2         false
 7            O=C(Nc1nc2c(s1)CCCC2)Oc1ccccc1         false
 8  Cc1cccc(CN2C(=O)N/C(=C/c3ccc(C)s3)C2=O)c1         false
 9         CC(=O)c1ccc(Sc2ccc(C(C)=O)cc2)cc1         false
10  Nc1nc(NCc2ccccc2)nc(NCc2ccccc2)c1[N+](=O)[O-]         false
11      Clc1ccc2c(c1)-c1nnc(Br)n1-c1ccccc1S2         false
12          CC(C)CN1C(=O)/C(=C/c2cccs2)NC1=S          true
13  CCOC(=O)N1CCC(NC(=O)c2cc3c(=O)n(C)c4ccccc4c3n2C)CC1         false
14  Cc1ccc(NC(=O)/C(=C\c2ccccc2)NC(=O)/C=C/c2ccccc2)cc1         false
15  O=C1N/C(=C/c2ccc(N3CCCC3)cc2)C(=O)N1c1ccccc1         false
16  Cc1ccc(C)c(NS(=O)(=O)c2c(C)ccc3nsnc23)c1         false
17  COC(=O)c1sc2nc(SCc3ccccc3C#N)n(N)c(=O)c2c1C          true
18             O=C(CN1CCCCC1)Nc1cccc(Cl)c1Cl         false
19  O=C1/C(=C/c2ccc(N3CCCC3)cc2)NC(=S)N1C1CC1          true
20  O=C1N/C(=C\c2ccc(N3CCOCC3)c(F)c2)C(=O)N1Cc1ccccc1         false

====

target: Metabotropic glutamate receptor 8 (Rattus norvegicus); test: mGluR8 Gi/Go-coupled signaling modulation – cell-based, rat, thallium flux, HTS, primary screen (AID 488969); conditions: HEK293 rat mGluR8, GIRK (G protein-gated inwardly rectifying potassium channel) thallium flux, FluoZin2; at 10 µM; stronger effect = higher value; submaximal glutamate (EC20) added with thallium
Over roughly 110,000 compounds, “z-score” has its median near -0.1; the highest 2% begin near 2. What follows is part of a selection rich in the highest values, with near analogues and random picks from the rest.
measure_name: z-score

> print(dat)
                                   compound                     target.or.test.system  measure.name  data.value
1               O=C(NC(=S)Nc1ccccc1)c1csnn1  Metabotropic glutamate receptor 8 (Rattus norvegicus)       z-score        12.4
2          COc1ccccc1C(=O)Nn1cnc2ccccc2c1=O  Metabotropic glutamate receptor 8 (Rattus norvegicus)       z-score       0.366
3  O=C(NCC(=O)N(Cc1cccs1)C(C(=O)NC1CCCCC1)c1ccco1)c1ccco1 (centres undefined)  Metabotropic glutamate receptor 8 (Rattus norvegicus)       z-score        2.96
4            O/N=C/c1cc(Cl)ccc1OCc1ccccc1Cl  Metabotropic glutamate receptor 8 (Rattus norvegicus)       z-score      -0.352
5  Cc1ccc(Cn2c(CN3CC(C)OC(C)C3)nc3c2c(=O)[nH]c(=O)n3C)cc1 (centres undefined)  Metabotropic glutamate receptor 8 (Rattus norvegicus)       z-score      0.0226
6  CCn1cc(S(=O)(=O)CC(=O)Nc2ccc(C)cc2)c2ccccc21  Metabotropic glutamate receptor 8 (Rattus norvegicus)       z-score      -0.393
7                     CCOc1ccc(Cl)cc1/C=N/O  Metabotropic glutamate receptor 8 (Rattus norvegicus)       z-score      -0.395
8  O=C(NCC(=O)N(Cc1ccccc1)C(C(=O)NC1CCCC1)c1cccnc1)c1ccco1 (centres undefined)  Metabotropic glutamate receptor 8 (Rattus norvegicus)       z-score     -0.0981
9  CC1CCCC(C)N1c1nnc(NC(=O)c2cc(-c3ccc(Br)cc3)on2)s1 (centres undefined)  Metabotropic glutamate receptor 8 (Rattus norvegicus)       z-score        2.04
